Please respond with reported melting point for every item in the list.

Examples with their reported melting point follow.
CCc1cc(C(=O)N2CCc3ccccc3C2C)nc2cc(-c3ccc(C(=O)NC(C)C(=O)O)cc3F)nn12 (stereo not shown) [Compound L11] = 165 to 170 °C
CCc1cc(C(=O)N2CCCCCC2C)nc2cc(-c3ccc(NC(=O)Cc4ccncc4)cc3F)nn12 (stereo not shown) [Compound E2] = 195 to 200 °C
CCc1cc(C(=O)N2CCn3nccc3C2C)nc2cc(-c3ccc(/C=C/C(=O)O)cc3F)nn12 (stereo not shown) [Compound M41] = 225 to 230 °C
CCc1cc(C(=O)N2CCCCCC2C)nc2cc(-c3ccc(NC(=O)CC#N)cc3F)nn12 (stereo not shown) [Compound E6] = 245 to 250 °C
CCCC(C)N(C)C(=O)c1cc(CC)n2nc(-c3ccc(C(N)=O)cc3)cc2n1 (stereo not shown) [Compound A28] = 140 to 145 °C

For every item below, please supply its melting point.
1. CCc1cc(C(=O)N2CCCCCC2C)nc2cc(-c3ccc(NC(=O)OCCO)cc3)nn12 (stereo not shown) [Compound C6]
2. CCc1cc(C(=O)N2CCc3ccccc3C2C)nc2cc(-c3ccc(C(=O)O)cc3F)nn12 (stereo not shown) [Compound K1]
3. CCCC(=O)Nc1ccc(-c2cc3nc(C(=O)N4CCCCCC4C)cc(CC)n3n2)c(F)c1 (stereo not shown) [Compound E4]
4. CCc1cc(C(=O)N2CCCCCC2C)nc2cc(-c3ccc(NC(=O)Cc4ccncc4)cc3)nn12 (stereo not shown) [Compound E23]
5. C[C@@H]1CCCCCN1C(=O)c1cc(C2CC2)n2nc(-c3ccc(-n4cc(C(=O)O)cn4)cc3F)cc2n1 [Compound W8]
6. CCc1cc(C(=O)N2CCCCCC2C)nc2cc(-c3ccc(CCC(=O)O)cc3F)nn12 (stereo not shown) [Compound Q1]

# output
176 to 178 °C
165 to 170 °C
175 to 180 °C
232 to 234 °C
232.32 °C
125 to 130 °C

For every item below, please supply its melting point.
1. CC1CCCCCN1C(=O)c1cc(N2CCCC2)n2nc(-c3ccc(NC(=O)C4CC4)cc3)cc2n1 (stereo not shown) [Compound E17]
2. CCc1cc(C(=O)N2CCn3cccc3C2C)nc2cc(-c3ccc(/C=C/C(=O)O)cc3F)nn12 (single isomer, unassigned) [Compound M44]
3. C[C@@H]1CCCCCN1C(=O)c1cc(N(C)C)n2nc(-c3ncc(/C=C/C(=O)O)cc3Cl)cc2n1 [Compound M12]
4. CC1CCCCCN1C(=O)c1cc(N(C)C2CCCCC2)n2nc(-c3ccc(NC(=O)C4CC4)cc3)cc2n1 (stereo not shown) [Compound E19]
5. CCc1cc(C(=O)N2CCCCC[C@H]2C)nc2cc(-c3ccc(N4CCC(C)(C(=O)O)C4)cc3F)nn12 (stereo partly shown) [Compound W17]

# output
["282 to 284 °C", "127.94 °C", "197 to 199 °C", "261 to 262 °C", "172.28 °C"]

* * *

# assay-name: Cytotoxicity in HeLa cells, ATP content measured with the ATPlite kit
# Format: cell-based
# condition-notes: human, TOX HELA pCC50
# Method: Black 384-well clear-bottom microtiter plates (Corning, Amsterdam, The Netherlands) were filled via acoustic drop ejection using the echo liquid handler (Labcyte, Sunnyvale, Calif.). 200 nL of compound stock solutions (100% DMSO) were transferred to the assay plates. […] Three days post-virus exposure, viral replication was quantified by measuring GFP expression in the cells by an in house developed MSM laser microscope (Tibotec, Beerse, Belgium). […]
Just a reminder that ties go to 0 (no): only CC50 at 3 days strictly below 40 µM counts as 1 (yes).

C[C@@H]1CCCCCN1C(=O)c1cc(C2(C)CC2)n2nc(-c3ccc(-n4cc(C(=O)O)cn4)cc3F)cc2n1 = 0 (no)
CC(C)Cc1cc(C(=O)N2CCCCC[C@H]2C)nc2cc(-c3ccc(-c4ccc(C(=O)O)cn4)cc3F)nn12 = 1 (yes)
CCc1cc(C(=O)N2CCCCC[C@H]2C)nc2cc(-c3ccc(N4CC[C@@H](C(=O)O)C4)cc3F)nn12 = 0 (no)
CCc1cc(C(=O)N2CCc3sccc3[C@H]2C)nc2cc(-c3cccc(/C=C/C(=O)O)c3F)nn12 (single isomer, unassigned) = 0 (no)
CCc1cc(C(=O)N2CCc3sccc3C2C)nc2cc(-c3ccc(N4CC[C@H](C(=O)O)C4)cc3F)nn12 (single isomer, unassigned) = 0 (no)

# input A record lists CCc1cc(C(=O)N2CCc3ccccc3C2C)nc2cc(-c3ccc(/C=C(\C)C(=O)O)cc3F)nn12 (stereo not drawn) . Is its CC50 at 3 days below 40 µM?
# output 1 (yes)

# input A record lists CCc1cc(C(=O)N2CCCCCC2C)nc2cc(-c3ccc(NC(=O)NCC4CCCO4)cc3F)nn12 (stereo not drawn) . Is its CC50 at 3 days below 40 µM?
# output 0 (no)

# input A record lists CCc1cc(C(=O)N2CCCCC[C@H]2C)nc2cc(-c3ccc(/C=C/C(=O)O)c(OC)c3F)nn12 . Is its CC50 at 3 days below 40 µM?
# output 0 (no)

# input A record lists CC1CCCCCN1C(=O)c1cc(N2CCCCC2)n2nc(-c3ccc(NC(=O)NCC4CCCO4)cc3)cc2n1 (stereo not drawn) . Is its CC50 at 3 days below 40 µM?
# output 0 (no)

These data points were gathered from patent US11084826B2.
